Measured FACS-Seq fitted mean (log10), listed per entry.
B1: library; a variant is named by its letters at N, in order (parent)
chain: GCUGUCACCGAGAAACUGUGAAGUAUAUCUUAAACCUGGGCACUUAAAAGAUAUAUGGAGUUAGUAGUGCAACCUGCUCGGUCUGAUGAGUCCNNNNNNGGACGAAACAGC

variants of: B1; experiment: FACS-Seq fitted mean relative fluorescence mCherry/BFP without ligand (log10 relative fluorescence); HEK293T; ligand: cyclic di-GMP (c-di-GMP-II aptamer); higher = higher reporter protein expression; settings: ligand present: no
Answer with a bare number; do not write a unit.

1. GCCGAU -0.47
2. AAGACG -0.185
3. GUUUUG 0.124
4. GUUACU -0.232
5. CUACAA -0.602

QUERY: # input variant: AAGGGG ; wanted: its FACS-Seq fitted mean (log10)
RESULT: -0.499

QUERY: // repeat for UCGGAA and report
RESULT: -0.484

QUERY: // repeat for AGAAAG and report
RESULT: -0.223

QUERY: // repeat for GUUUGG and report
RESULT: -0.428

QUERY: // repeat for CGGCCA and report
RESULT: -0.425

QUERY: // repeat for CUCUUG and report
RESULT: 0.116

QUERY: // repeat for GAACCC and report
RESULT: 0.196

QUERY: // repeat for CGACUG and report
RESULT: -0.0298

QUERY: // repeat for GAUACA and report
RESULT: -0.276

QUERY: // repeat for AACUGG and report
RESULT: -0.198

QUERY: // repeat for GCCGUG and report
RESULT: -0.238

QUERY: // repeat for GAAUGC and report
RESULT: 0.00373

QUERY: // repeat for AAAUGC and report
RESULT: -0.0259

QUERY: // repeat for CCCGUA and report
RESULT: -0.351

QUERY: // repeat for CUAUCC and report
RESULT: -0.679

Data provenance is the supplement of paper PMC6757056.
